// provenance: the supplement of paper PMC10065799

# target entity: MERTK (UniProt Q12866)
# Sequence (Q12866 whole entry, looked up): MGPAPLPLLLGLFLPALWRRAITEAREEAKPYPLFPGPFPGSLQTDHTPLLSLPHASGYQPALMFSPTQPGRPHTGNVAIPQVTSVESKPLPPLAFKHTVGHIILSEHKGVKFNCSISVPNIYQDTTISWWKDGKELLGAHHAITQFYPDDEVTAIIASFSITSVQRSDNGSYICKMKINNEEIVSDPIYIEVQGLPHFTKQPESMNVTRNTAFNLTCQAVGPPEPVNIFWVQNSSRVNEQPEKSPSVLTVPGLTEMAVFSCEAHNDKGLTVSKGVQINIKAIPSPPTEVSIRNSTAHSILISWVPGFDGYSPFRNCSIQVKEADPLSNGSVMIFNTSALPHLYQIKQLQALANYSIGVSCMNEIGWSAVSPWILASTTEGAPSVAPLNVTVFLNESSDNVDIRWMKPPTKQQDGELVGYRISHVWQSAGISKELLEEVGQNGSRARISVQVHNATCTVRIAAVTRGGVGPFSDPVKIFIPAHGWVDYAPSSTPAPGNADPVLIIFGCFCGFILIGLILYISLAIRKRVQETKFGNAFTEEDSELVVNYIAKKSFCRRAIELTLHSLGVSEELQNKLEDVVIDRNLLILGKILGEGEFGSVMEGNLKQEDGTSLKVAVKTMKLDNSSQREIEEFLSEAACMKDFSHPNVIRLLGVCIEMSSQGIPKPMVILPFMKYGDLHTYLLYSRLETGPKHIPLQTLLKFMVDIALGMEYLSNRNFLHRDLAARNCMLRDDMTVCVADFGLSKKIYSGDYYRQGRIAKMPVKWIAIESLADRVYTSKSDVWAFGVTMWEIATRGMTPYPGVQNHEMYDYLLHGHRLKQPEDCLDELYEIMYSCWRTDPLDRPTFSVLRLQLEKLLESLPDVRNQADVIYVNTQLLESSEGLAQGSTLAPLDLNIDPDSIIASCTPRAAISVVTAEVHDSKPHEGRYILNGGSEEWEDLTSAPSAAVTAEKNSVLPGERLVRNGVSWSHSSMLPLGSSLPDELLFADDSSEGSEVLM
# assay overview: phosphorylation enrichment, bacterial display (enrichment ratio); higher = better substrate or ligand; peptides without Tyr show the background;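 note: 11-residue human phosphosite peptides and single-mutation variants displayed on the E. coli surface, counted by deep sequencing, each peptide's frequency after selection divided by its frequency in the unselected input library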;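 note: frequency after pTyr selection over input frequency; kinase dosed for 20-30% of maximal phosphorylation in three min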
Reported phosphorylation enrichment values follow for various sequences
measurement kind: phosphorylation enrichment

{"sequence content": "NELTFYCFKKD [CD59_Y87_C89Y_YF]", "measurement kind": "phosphorylation enrichment", "measured value": 0.381}
{"sequence content": "CEDGNYSPEIS [PTDSS1_Y424_T423N]", "measurement kind": "phosphorylation enrichment", "measured value": 0.486}
{"sequence content": "GYQPEYGQPAG [SYP_Y278_D277E]", "measurement kind": "phosphorylation enrichment", "measured value": 0.467}
{"sequence content": "RGGWVYVLHPT [TRMT61A_Y67]", "measurement kind": "phosphorylation enrichment", "measured value": 0.493}
{"sequence content": "RRKRAYVEIEY [MAK16_Y282_Q277R]", "measurement kind": "phosphorylation enrichment", "measured value": 1.22}
{"sequence content": "QGIYGYHHHMQ [UFSP2_Y287_Y290H]", "measurement kind": "phosphorylation enrichment", "measured value": 9.93}
{"sequence content": "CTTIHKNYMCN [TP53_Y234_Y234K]", "measurement kind": "phosphorylation enrichment", "measured value": 0.484}
{"sequence content": "LSDGPYSSPYE [EPOR_Y485_N487S]", "measurement kind": "phosphorylation enrichment", "measured value": 0.523}
{"sequence content": "QGCSIYKDFFR [PLA2G2D_Y82_YF]", "measurement kind": "phosphorylation enrichment", "measured value": 0.998}
{"sequence content": "QISQDYGVLLE [PRDX3_Y172_R170Q]", "measurement kind": "phosphorylation enrichment", "measured value": 0.603}
{"sequence content": "HSFQCYGRNEA [ENTPD3_Y262]", "measurement kind": "phosphorylation enrichment", "measured value": 0.585}
{"sequence content": "TQTPPYVKKHP [LARP1B_Y457]", "measurement kind": "phosphorylation enrichment", "measured value": 0.466}
{"sequence content": "GCKNRYDKGKP [THAP1_Y14_D17G]", "measurement kind": "phosphorylation enrichment", "measured value": 0.408}
{"sequence content": "KTKIGYSPLHQ [ANK1_Y735_L733I]", "measurement kind": "phosphorylation enrichment", "measured value": 0.466}
{"sequence content": "GKVFIYHGSSL [ITGA7_Y458]", "measurement kind": "phosphorylation enrichment", "measured value": 0.364}
{"sequence content": "CQKRKYIEIDS [SDAD1_Y580_S575C]", "measurement kind": "phosphorylation enrichment", "measured value": 0.38}
{"sequence content": "HQEPVYSVAFS [TBL1X_Y509]", "measurement kind": "phosphorylation enrichment", "measured value": 14.5}
{"sequence content": "SLHPGYNFRYA [P2RX7_Y291_Y288H]", "measurement kind": "phosphorylation enrichment", "measured value": 0.622}
{"sequence content": "TFVVLYDAELT [ERCC4_Y581_R576T_YF]", "measurement kind": "phosphorylation enrichment", "measured value": 0.724}
{"sequence content": "RDGDRYFKGIV [DCX_Y64_N60D]", "measurement kind": "phosphorylation enrichment", "measured value": 0.374}
{"sequence content": "FIAVGYVDDSQ [HLA-A_Y51_T55S]", "measurement kind": "phosphorylation enrichment", "measured value": 0.3}
{"sequence content": "LSIQCYLRASD [HMGCS2_Y262_L266S]", "measurement kind": "phosphorylation enrichment", "measured value": 1.2}
{"sequence content": "TISPFYRQSLF [CRYAA_Y48_YF]", "measurement kind": "phosphorylation enrichment", "measured value": 0.467}
{"sequence content": "VLNHAYENLTR [SYNE2_Y3255_D3253H]", "measurement kind": "phosphorylation enrichment", "measured value": 0.303}
{"sequence content": "ATFRGYDSDNP [MMUT_Y146_H143Y_YF]", "measurement kind": "phosphorylation enrichment", "measured value": 0.373}
{"sequence content": "SVVVPYEPPEV [TP53_Y220]", "measurement kind": "phosphorylation enrichment", "measured value": 0.531}
{"sequence content": "TNYRLYLRSLE [MTM1_Y71]", "measurement kind": "phosphorylation enrichment", "measured value": 0.554}
{"sequence content": "QNTGDYCDLYG [PTPN11_Y62_Y63C]", "measurement kind": "phosphorylation enrichment", "measured value": 0.633}
{"sequence content": "AIYWRYSKFFD [SH3PXD2B_Y45_R43W]", "measurement kind": "phosphorylation enrichment", "measured value": 0.421}
